Reported PBM binding z-score values for the following sequences.
Tested on: PPARg DBDmut:RXRa IVT, anti-PPARg (DBD mutation: PPARg1 K132A/R137A, NR concentration 270 nM, RXRa partner concentration 90 nM)
Assay: PBM binding z-score (relative to random genomic background probes); higher = stronger binding; sequences stand for … in GC…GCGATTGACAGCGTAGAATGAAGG
Just the number, please.

Value of measured PBM binding z-score for the entry "AATACAAGGTCACTAGGCCAGAGTAGGTACGAAT" : 2.9

Value of measured PBM binding z-score for the entry "TCGAGTAGGATAGTCGGGGCATTCAGCCAACATA" : -1.74

Value of measured PBM binding z-score for the entry "ACAAGCAGGCCAAGTTTGGGTCACTCAAACAAAG" : -0.817

Value of measured PBM binding z-score for the entry "TTACCAAGGTGCAAGGTCGTTGATGCACGCCTTG" : -0.472

Others:
Value of measured PBM binding z-score for the entry "TCTTGAAGATCAAAGGTTAAGAAAGCCGAAGCCT" : 0.267

Value of measured PBM binding z-score for the entry "TCTTGTAGATCAACAGGAGGTTAGGAAAGATCGA" : 0.272
